- method description: Plasma PK of H3B-6545 capsules in fasted patients, phase 1 dose escalation
- Format: in vivo, human
- experimental context: female, human, plasma, oral, 100 mg, Cycle 1 Day 15; 100 mg QD capsules, fasted patients; Median (Min, Max)
property measured: Tmax (h)

> print(dat)
                                test.smiles  property.measured  recorded.result
1  CN(C)C(=O)/C=C/CNCCOc1ccc(/C(=C(/CC(F)(F)F)c2ccccc2)c2ccc3[nH]nc(F)c3c2)cn1               Tmax                2

* * *

- method description: Plasma PK of 450 mg capsules in fasted and fed patients, dose expansion
- Format: in vivo, human
- experimental context: human, plasma, oral, 450 mg, 450 mg QD capsules, Dose Expansion-Fasted; Geometric Mean (GeoCV %)
- Method: Blood samples were collected at the planned time points from each patient and centrifuged. […] The concentration data were then analyzed using Phoenix® WinNonlin software to obtain PK parameters. […] Blood samples (approximately 5 mL each) were collected from human patients pre-dose and at various hourly time points post-dose. Plasma concentrations of H3B-6545 were determined using a validated high-performance liquid chromatography/tandem mass spectrometry (LC-MS/MS) method. […]
property measured: AUC(0-inf) (ng·h/mL)

> print(dat)
                                test.smiles  property.measured  readout.units  recorded.result
1  CN(C)C(=O)/C=C/CNCCOc1ccc(/C(=C(/CC(F)(F)F)c2ccccc2)c2ccc3[nH]nc(F)c3c2)cn1         AUC(0-inf)        ng·h/mL            16500

* * *

- method description: Plasma PK of H3B-6545 capsules in fasted patients, phase 1 dose escalation
- Format: in vivo, human
- experimental context: female, human, plasma, oral, 200 mg, Cycle 1 Day 1; 200 mg QD capsules, fasted patients; Geometric Mean (GeoCV %); read-out: Vz/F
property measured: Vd/F (L)

> print(dat)
                                test.smiles  property.measured  recorded.result
1  CN(C)C(=O)/C=C/CNCCOc1ccc(/C(=C(/CC(F)(F)F)c2ccccc2)c2ccc3[nH]nc(F)c3c2)cn1               Vd/F              532

* * *

- method description: Plasma PK of H3B-6545 capsules in fasted patients, phase 1 dose escalation
- Assay type: in vivo, human
- experimental context: female, human, plasma, oral, 600 mg, Cycle 1 Day 15; 600 mg QD capsules, fasted patients; Geometric Mean (GeoCV %); read-out: Vz/F
property measured: Vd/F (L)

> print(dat)
                                   molecule  recorded.result
1  CN(C)C(=O)/C=C/CNCCOc1ccc(/C(=C(/CC(F)(F)F)c2ccccc2)c2ccc3[nH]nc(F)c3c2)cn1 [H3B-6545]             1030

* * *

- method description: Plasma PK of H3B-6545 capsules in fasted patients, phase 1 dose escalation
- Format: in vivo, human
- experimental context: female, human, plasma, oral, 100 mg, Cycle 1 Day 15; 100 mg QD capsules, fasted patients; Geometric Mean (GeoCV %)
- Experimental: Blood samples were collected at the planned time points from each patient and centrifuged. […] The concentration data were then analyzed using Phoenix® WinNonlin software to obtain PK parameters. […] Blood samples (approximately 5 mL each) were collected from human patients pre-dose and at various hourly time points post-dose. Plasma concentrations of H3B-6545 were determined using a validated high-performance liquid chromatography/tandem mass spectrometry (LC-MS/MS) method. […]
property measured: Cmax (ng/mL)

> print(dat)
                                   compound  recorded.result
1  CN(C)C(=O)/C=C/CNCCOc1ccc(/C(=C(/CC(F)(F)F)c2ccccc2)c2ccc3[nH]nc(F)c3c2)cn1 [H3B-6545]              287

* * *

- method description: Plasma PK of H3B-6545 capsules in fasted patients, phase 1 dose escalation
- Type: in vivo, human
- experimental context: female, human, plasma, oral, 200 mg, Cycle 1 Day 15; 200 mg QD capsules, fasted patients; Geometric Mean (GeoCV %); read-out: Vz/F
- Experimental: Blood samples were collected at the planned time points from each patient and centrifuged. […] The concentration data were then analyzed using Phoenix® WinNonlin software to obtain PK parameters. […] Blood samples (approximately 5 mL each) were collected from human patients pre-dose and at various hourly time points post-dose. Plasma concentrations of H3B-6545 were determined using a validated high-performance liquid chromatography/tandem mass spectrometry (LC-MS/MS) method. […]
property measured: Vd/F (L)

> print(dat)
                                test.smiles  readout.units  recorded.result
1  CN(C)C(=O)/C=C/CNCCOc1ccc(/C(=C(/CC(F)(F)F)c2ccccc2)c2ccc3[nH]nc(F)c3c2)cn1              L              455

* * *

- method description: Plasma PK of 450 mg capsules in fasted and fed patients, dose expansion
- Type: in vivo, human
- experimental context: human, plasma, oral, 450 mg, 450 mg QD capsules, Dose Expansion-Fed; Geometric Mean (GeoCV %)
- Protocol: Blood samples were collected at the planned time points from each patient and centrifuged. […] The concentration data were then analyzed using Phoenix® WinNonlin software to obtain PK parameters. […] Blood samples (approximately 5 mL each) were collected from human patients pre-dose and at various hourly time points post-dose. Plasma concentrations of H3B-6545 were determined using a validated high-performance liquid chromatography/tandem mass spectrometry (LC-MS/MS) method. […]
property measured: Cmax (ng/mL)

> print(dat)
                                test.smiles  property.measured  readout.units  recorded.result
1  CN(C)C(=O)/C=C/CNCCOc1ccc(/C(=C(/CC(F)(F)F)c2ccccc2)c2ccc3[nH]nc(F)c3c2)cn1               Cmax          ng/mL             1560

* * *

- method description: Plasma PK of H3B-6545 capsules in fasted patients, phase 1 dose escalation
- Assay type: in vivo, human
- experimental context: female, human, plasma, oral, 600 mg, Cycle 1 Day 1; 600 mg QD capsules, fasted patients; Geometric Mean (GeoCV %); read-out: AUC0-24
- Description: Blood samples were collected at the planned time points from each patient and centrifuged. […] The concentration data were then analyzed using Phoenix® WinNonlin software to obtain PK parameters. […] Blood samples (approximately 5 mL each) were collected from human patients pre-dose and at various hourly time points post-dose. Plasma concentrations of H3B-6545 were determined using a validated high-performance liquid chromatography/tandem mass spectrometry (LC-MS/MS) method. […]
property measured: AUC(0-t)

> print(dat)
                                test.smiles  recorded.result
1  CN(C)C(=O)/C=C/CNCCOc1ccc(/C(=C(/CC(F)(F)F)c2ccccc2)c2ccc3[nH]nc(F)c3c2)cn1    22400 ng·h/mL

* * *

- method description: Plasma PK of H3B-6545 capsules in fasted patients, phase 1 dose escalation
- Assay type: in vivo, human
- experimental context: female, human, plasma, oral, 450 mg, Cycle 1 Day 15; 450 mg QD capsules, fasted patients; Geometric Mean (GeoCV %); read-out: Vss
- Procedure: Blood samples were collected at the planned time points from each patient and centrifuged. […] The concentration data were then analyzed using Phoenix® WinNonlin software to obtain PK parameters. […] Blood samples (approximately 5 mL each) were collected from human patients pre-dose and at various hourly time points post-dose. Plasma concentrations of H3B-6545 were determined using a validated high-performance liquid chromatography/tandem mass spectrometry (LC-MS/MS) method. […]
property measured: Vd (L)

> print(dat)
                                   molecule  recorded.result
1  CN(C)C(=O)/C=C/CNCCOc1ccc(/C(=C(/CC(F)(F)F)c2ccccc2)c2ccc3[nH]nc(F)c3c2)cn1 [H3B-6545]              489

* * *

- method description: Plasma PK of H3B-6545 capsules in fasted patients, phase 1 dose escalation
- Type: in vivo, human
- experimental context: female, human, plasma, oral, 200 mg, Cycle 1 Day 1; 200 mg QD capsules, fasted patients; Geometric Mean (GeoCV %)
property measured: AUC(0-inf) (ng·h/mL)

> print(dat)
                                test.smiles  readout.units  recorded.result
1  CN(C)C(=O)/C=C/CNCCOc1ccc(/C(=C(/CC(F)(F)F)c2ccccc2)c2ccc3[nH]nc(F)c3c2)cn1        ng·h/mL             5270

* * *

- method description: Plasma PK of H3B-6545 capsules in fasted patients, phase 1 dose escalation
- Format: in vivo, human
- experimental context: female, human, plasma, oral, 100 mg, Cycle 1 Day 1; 100 mg QD capsules, fasted patients; Geometric Mean (GeoCV %)
property measured: AUC(0-inf) (ng·h/mL)

> print(dat)
                                   compound  recorded.result
1  CN(C)C(=O)/C=C/CNCCOc1ccc(/C(=C(/CC(F)(F)F)c2ccccc2)c2ccc3[nH]nc(F)c3c2)cn1 [H3B-6545]             2130

// data source = patent US12702660B2
